Assay: HT29 colon tumor cell growth inhibition, primary screen, imaging, high content imaging, 72 h, CellTiter-Glo (AID 772)
Settings: HCS imaging cell count, measured here: ATP CellTiter-Glo viability, at 10 µM, stronger effect = higher value
Screen size: about 3,300 compounds; about 20 (0.6%) were called active. This is one part of a sample in which actives are shown more often than they occur.
Kindly supply the reported growth inhibition values for the records listed here.
Numeric answer only, unit % assumed.

Quick one: growth inhibition of Cc1cc(=O)oc(C)c1C(=O)NCC1CCCO1 (stereo unspecified) ?
8.51

Quick one: growth inhibition of N/C(CCN1CCCCC1)=N/O ?
13.8

Quick one: growth inhibition of O=C(CCC(=O)CCN1CCCCC1)CCN1CCCCC1 ?
14.4

Quick one: growth inhibition of O=C(CCN1CCCCC1)Nc1cccc(Cl)c1 ?
28.1

Quick one: growth inhibition of O=C(NC1CCS(=O)(=O)C1)N1CCCCC1 (stereo unspecified) ?
4.61

Quick one: growth inhibition of CCOC(=O)CSc1nnc2n(Cc3ccccc3)c(=O)c3c4c(sc3n12)CCC4 ?
-5.86

Quick one: growth inhibition of CCCCC(CCC(=O)Nc1ccc(C(=O)OC)cc1)C(=O)O (stereo unspecified) ?
-7.18

Quick one: growth inhibition of CCCOc1ccc(Cl)cc1CN1CCOCC1 ?
-68.7

Quick one: growth inhibition of CCN(CC)CCN1C(=O)C(=O)/C(=C(/O)c2c(C)[nH]c(C(=O)OC)c2C)C1c1cccc(OC)c1 (stereo unspecified) ?
-54.7

Quick one: growth inhibition of CCN(CC)C(=O)CSc1nc2ccccc2c(=O)n1CC1CCCCC1 ?
31.7

Quick one: growth inhibition of CCCCC(=O)c1c(C)cc(C)[nH]c1=O ?
-46.2
